- measuredOn: UniProtKB Q9HBH9
- Sequence (Q9HBH9 whole entry): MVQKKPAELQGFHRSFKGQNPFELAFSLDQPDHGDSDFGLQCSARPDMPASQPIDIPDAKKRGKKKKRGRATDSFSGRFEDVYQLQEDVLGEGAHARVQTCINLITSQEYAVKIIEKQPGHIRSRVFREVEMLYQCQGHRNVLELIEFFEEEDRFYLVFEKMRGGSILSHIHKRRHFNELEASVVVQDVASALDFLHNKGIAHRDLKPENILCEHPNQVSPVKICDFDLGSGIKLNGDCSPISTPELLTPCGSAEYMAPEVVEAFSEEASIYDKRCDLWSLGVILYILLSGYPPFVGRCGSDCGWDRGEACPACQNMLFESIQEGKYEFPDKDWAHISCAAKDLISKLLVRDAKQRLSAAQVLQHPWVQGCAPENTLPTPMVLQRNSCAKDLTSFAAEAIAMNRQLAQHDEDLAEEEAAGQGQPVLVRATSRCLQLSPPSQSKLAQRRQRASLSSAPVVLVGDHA
- assayMethodText: Mnks inhibition HTRF assay (Mnk2)
- Type: biochemical
- conditionSummary: compound at 1 μM, 39.2 µM ATP, mean of triple independent experiments, read-out: %inhib. 1 μM Mnk2
Rule: T for inhibition at 1 µM not less than 40%, F for anything less.

[
  {
    "compoundStructure": "Nc1ccccc1NC(=O)c1ccc(COc2ccc3ncnc(Nc4ccc(F)cc4)c3n2)cc1",
    "labelValue": "T"
  },
  {
    "compoundStructure": "O=C(CCCCCNc1ccc2ncnc(Nc3ccc(F)cc3)c2n1)NO",
    "labelValue": "T"
  },
  {
    "compoundStructure": "O=C(NO)c1ccc(CNc2ccc3ncnc(Nc4ccc(F)cc4)c3n2)cc1",
    "labelValue": "T"
  },
  {
    "compoundStructure": "Nc1ccccc1NC(=O)CCCCCCNc1ccc2ncnc(Nc3ccc(F)cc3)c2n1",
    "labelValue": "F"
  },
  {
    "compoundStructure": "O=C(CCCCCCNc1ccc2ncnc(Nc3ccc(F)cc3Cl)c2n1)NO",
    "labelValue": "F"
  }
]

Task: Decide: is the reported value of inhibition at 1 µM for "Nc1ccccc1NC(=O)c1ccc(CNc2ccc3ncnc(Nc4ccc(F)cc4)c3n2)cc1" equal to or greater than 40%?
Output: T

Task: For this molecule, is measured inhibition at 1 µM 40% or higher? "O=C(NO)c1ccc(-c2ccc3ncnc(Nc4ccc(F)cc4)c3n2)cc1"
Output: F

Task: Please check the record "O=C(CCCCCCNc1ccc2ncnc(Nc3ccc(F)c(Cl)c3)c2n1)NO" and state if its inhibition at 1 µM is at or above 40%.
Output: T

Task: Can "COc1cc(Nc2ncnc3ccc(NCCCCCCC(=O)NO)nc23)ccc1F" be said to have inhibition at 1 µM at or above 40%?
Output: F

Task: Check this molecule for inhibition at 1 µM at or above 40%: "CC(C)Oc1cc(F)ccc1Nc1ncnc2ccc(NCCCCCCC(=O)NO)nc12"
Output: T
